Tested on: panel of 55 breast cancer cell lines
measurement-description: Cell growth inhibition assay (Cell Titer Glo, 72 h, 9 doses; GI50, TGI, LC50)
Assay type: cell-based, human
condition-notes: Homo sapiens, UACC-893, cell line UACC893; read-out: GI50 (converted)
quantity-name: log10 GI50 (log10 of the value in µM)
On a log10 scale: recorded GI50, unit µM.

If you can, please state the reported log10 GI50 value of COc1cc([C@@H]2c3cc4c(cc3[C@@H](O[C@@H]3O[C@@H]5CO[C@@H](C)O[C@H]5[C@H](O)[C@H]3O)[C@H]3COC(=O)[C@H]23)OCO4)cc(OC)c1O [Etoposide] .
1.74

Same lookup for COc1cccc2c1C(=O)c1c(O)c3c(c(O)c1C2=O)C[C@@](O)(C(=O)CO)C[C@@H]3O[C@H]1C[C@H](N)[C@@H](O)[C@H](C)O1 [Epirubicin] , please.
-0.11

Same lookup for CC(C)C[C@H](NC(=O)[C@H](Cc1ccccc1)NC(=O)c1cnccn1)B(O)O , please.
-3.19

Same lookup for CC(=O)O[C@@]12CO[C@@H]1C[C@H](O)[C@@]1(C)C(=O)[C@H](O)C3=C(C)[C@@H](OC(=O)[C@H](O)[C@@H](NC(=O)OC(C)(C)C)c4ccccc4)C[C@@](O)([C@@H](OC(=O)c4ccccc4)[C@H]21)C3(C)C , please.
-1.94

Same lookup for COc1cc2ncnc(Nc3ccc(F)c(Cl)c3)c2cc1OCCCN1CCOCC1 , please.
0.06

Same lookup for CC[C@@]1(O)C(=O)OCc2c1cc1n(c2=O)Cc2cc3c(CN(C)C)c(O)ccc3nc2-1 , please.
-0.46

Same lookup for COc1cccc2c1C(=O)c1c(O)c3c(c(O)c1C2=O)C[C@@](O)(C(=O)CO)C[C@@H]3O[C@H]1C[C@H](N)[C@H](O)[C@H](C)O1 , please.
-0.08

Same lookup for C/C(=C\c1csc(C)n1)[C@@H]1C[C@@H]2O[C@]2(C)CCC[C@H](C)[C@H](O)[C@@H](C)C(=O)C(C)(C)[C@@H](O)CC(=O)N1 [Ixabepilone] , please.
-2.20

Same lookup for CCN(CC)CCCCNc1ncc2cc(-c3cc(OC)cc(OC)c3)c(NC(=O)NC(C)(C)C)nc2n1 , please.
0.84

Same lookup for CS(=O)(=O)CCNCc1ccc(-c2ccc3ncnc(Nc4ccc(OCc5cccc(F)c5)c(Cl)c4)c3c2)o1 , please.
0.26

Same lookup for O=C1c2ccccc2-[n+]2ccc3c([nH]c4ccccc43)c21 , please.
-0.73

Same lookup for CO[C@H]1C[C@@H]2CC[C@@H](C)[C@@](O)(O2)C(=O)C(=O)N2CCCC[C@H]2C(=O)O[C@H]([C@H](C)C[C@@H]2CC[C@@H](O)[C@H](OC)C2)CC(=O)[C@H](C)/C=C(\C)[C@@H](O)[C@@H](OC)C(=O)[C@H](C)C[C@H](C)/C=C/C=C/C=C/1C , please.
2.22

Same lookup for COC1=C2C[C@@H](C)C[C@H](OC)[C@H](O)[C@@H](C)/C=C(\C)[C@H](OC(N)=O)[C@@H](OC)/C=C\C=C(/C)C(=O)NC(=CC1=O)C2=O , please.
-1.96

Same lookup for C#Cc1cccc(Nc2ncnc3cc(OCCOC)c(OCCOC)cc23)c1 , please.
1.09

Same lookup for CCNCCCNC/C=C\CNCCCNCC , please.
3.32

###

Tested on: panel of 55 breast cancer cell lines
measurement-description: Cell growth inhibition assay (Cell Titer Glo, 72 h, 9 doses; GI50, TGI, LC50)
Format: cell-based, human
condition-notes: Homo sapiens, HCC202, cell line HCC202; read-out: GI50 (converted)
Mark 1 only for GI50 values smaller than 600 nM; exact matches and larger values are 0.

Below 600 nM on GI50? Entry CC(=O)O[C@@]12CO[C@@H]1C[C@H](O)[C@@]1(C)C(=O)[C@H](O)C3=C(C)[C@@H](OC(=O)[C@H](O)[C@@H](NC(=O)OC(C)(C)C)c4ccccc4)C[C@@](O)([C@@H](OC(=O)c4ccccc4)[C@H]21)C3(C)C
1

Same lookup for COc1cccc2c1C(=O)c1c(O)c3c(c(O)c1C2=O)C[C@@](O)(C(=O)CO)C[C@@H]3O[C@H]1C[C@H](N)[C@H](O)[C@H](C)O1 , please.
1

Same lookup for CC(=O)O[C@H]1C(=O)[C@@]2(C)[C@H]([C@H](OC(=O)c3ccccc3)[C@]3(O)C[C@H](OC(=O)[C@H](O)[C@@H](NC(=O)c4ccccc4)c4ccccc4)C(C)=C1C3(C)C)[C@]1(OC(C)=O)CO[C@@H]1C[C@@H]2O , please.
1

Same lookup for CCN(CC)CCNC(=O)c1c(C)[nH]c(/C=C2\C(=O)Nc3ccc(F)cc32)c1C [Sunitinib Malate] , please.
0

Same lookup for C#Cc1cccc(Nc2ncnc3cc(OCCOC)c(OCCOC)cc23)c1 , please.
0

Same lookup for C/C(=C\c1csc(C)n1)[C@@H]1C[C@@H]2O[C@]2(C)CCC[C@H](C)[C@H](O)[C@@H](C)C(=O)C(C)(C)[C@@H](O)CC(=O)N1 [Ixabepilone] , please.
0

Same lookup for CCN(CC)CCCCNc1ncc2cc(-c3cc(OC)cc(OC)c3)c(NC(=O)NC(C)(C)C)nc2n1 , please.
0

Same lookup for COC1=C2C[C@@H](C)C[C@H](OC)[C@H](O)[C@@H](C)/C=C(\C)[C@H](OC(N)=O)[C@@H](OC)/C=C\C=C(/C)C(=O)NC(=CC1=O)C2=O , please.
1

Same lookup for CC(C)C[C@H](NC(=O)[C@H](Cc1ccccc1)NC(=O)c1cnccn1)B(O)O , please.
1

Same lookup for O=C1c2ccccc2-[n+]2ccc3c([nH]c4ccccc43)c21 , please.
1

Same lookup for CCNCCCNC/C=C\CNCCCNCC , please.
0

Same lookup for Nc1nc2[nH]cc(CCc3ccc(C(=O)N[C@@H](CCC(=O)O)C(=O)O)cc3)c2c(=O)[nH]1 , please.
1

Same lookup for Cc1ccc(C(=O)N(CCCN)[C@@H](c2nc3cc(Cl)ccc3c(=O)n2Cc2ccccc2)C(C)C)cc1 , please.
1

Same lookup for CC[C@@]1(O)C(=O)OCc2c1cc1n(c2=O)Cc2cc3c(CN(C)C)c(O)ccc3nc2-1 , please.
0

Same lookup for CNC(=O)c1cc(Oc2ccc(NC(=O)Nc3ccc(Cl)c(C(F)(F)F)c3)cc2)ccn1 , please.
0

Same lookup for CC/C(=C(\c1ccccc1)c1ccc(OCCN(C)C)cc1)c1ccccc1 , please.
0

Same lookup for COc1cc([C@@H]2c3cc4c(cc3[C@@H](O[C@@H]3O[C@@H]5CO[C@@H](C)O[C@H]5[C@H](O)[C@H]3O)[C@H]3COC(=O)[C@H]23)OCO4)cc(OC)c1O [Etoposide] , please.
0

Same lookup for CN(Cc1cnc2nc(N)nc(N)c2n1)c1ccc(C(=O)N[C@@H](CCC(=O)O)C(=O)O)cc1 [Methotrexate] , please.
1

Same lookup for CS(=O)(=O)CCNCc1ccc(-c2ccc3ncnc(Nc4ccc(OCc5cccc(F)c5)c(Cl)c4)c3c2)o1 , please.
0

Same lookup for CCC1=C[C@@H]2CN(C1)Cc1c([nH]c3ccccc13)[C@@](C(=O)OC)(c1cc3c(cc1OC)N(C)[C@H]1[C@@](O)(C(=O)OC)[C@H](OC(C)=O)[C@]4(CC)C=CCN5CC[C@]31[C@@H]54)C2 , please.
1

Same lookup for CO[C@H]1C[C@@H]2CC[C@@H](C)[C@@](O)(O2)C(=O)C(=O)N2CCCC[C@H]2C(=O)O[C@H]([C@H](C)C[C@@H]2CC[C@@H](O)[C@H](OC)C2)CC(=O)[C@H](C)/C=C(\C)[C@@H](O)[C@@H](OC)C(=O)[C@H](C)C[C@H](C)/C=C/C=C/C=C/1C , please.
1

###

For each entry below, report its GI50 value.
System: panel of 55 breast cancer cell lines
measurement-description: Cell growth inhibition assay (Cell Titer Glo, 72 h, 9 doses; GI50, TGI, LC50)
Format: cell-based, human
condition-notes: Homo sapiens, cell line HCC2185; read-out: GI50 (converted)
Kindly format the answer as number then unit.

If you can, please state the reported GI50 value of NS(=O)(=O)OC[C@@H]1C[C@@H](n2ccc3c(N[C@H]4CCc5ccccc54)ncnc32)C[C@@H]1O .
372 nM

Same lookup for CS(=O)(=O)CCNCc1ccc(-c2ccc3ncnc(Nc4ccc(OCc5cccc(F)c5)c(Cl)c4)c3c2)o1 , please.
3800 nM

Same lookup for CN(C)C/C=C/C(=O)Nc1cc2c(Nc3ccc(F)c(Cl)c3)ncnc2cc1O[C@H]1CCOC1 , please.
1380 nM

Same lookup for O=C1c2ccccc2-[n+]2ccc3c([nH]c4ccccc43)c21 , please.
126 nM

Same lookup for C#Cc1cccc(Nc2ncnc3cc(OCCOC)c(OCCOC)cc23)c1 , please.
23400 nM

Same lookup for CO[C@H]1C[C@@H]2CC[C@@H](C)[C@@](O)(O2)C(=O)C(=O)N2CCCC[C@H]2C(=O)O[C@H]([C@H](C)C[C@@H]2CC[C@@H](OC(=O)C(C)(CO)CO)[C@H](OC)C2)CC(=O)[C@H](C)/C=C(\C)[C@@H](O)[C@@H](OC)C(=O)[C@H](C)C[C@H](C)/C=C/C=C/C=C/1C , please.
13.2 nM

Same lookup for CN(Cc1cnc2nc(N)nc(N)c2n1)c1ccc(C(=O)N[C@@H](CCC(=O)O)C(=O)O)cc1 [Methotrexate] , please.
331000 nM
